Entry source: ChEMBL document CHEMBL4680251

Molecular target: Mitogen-activated protein kinase kinase kinase 5 (Homo sapiens)
Sequence (Q99683 whole entry): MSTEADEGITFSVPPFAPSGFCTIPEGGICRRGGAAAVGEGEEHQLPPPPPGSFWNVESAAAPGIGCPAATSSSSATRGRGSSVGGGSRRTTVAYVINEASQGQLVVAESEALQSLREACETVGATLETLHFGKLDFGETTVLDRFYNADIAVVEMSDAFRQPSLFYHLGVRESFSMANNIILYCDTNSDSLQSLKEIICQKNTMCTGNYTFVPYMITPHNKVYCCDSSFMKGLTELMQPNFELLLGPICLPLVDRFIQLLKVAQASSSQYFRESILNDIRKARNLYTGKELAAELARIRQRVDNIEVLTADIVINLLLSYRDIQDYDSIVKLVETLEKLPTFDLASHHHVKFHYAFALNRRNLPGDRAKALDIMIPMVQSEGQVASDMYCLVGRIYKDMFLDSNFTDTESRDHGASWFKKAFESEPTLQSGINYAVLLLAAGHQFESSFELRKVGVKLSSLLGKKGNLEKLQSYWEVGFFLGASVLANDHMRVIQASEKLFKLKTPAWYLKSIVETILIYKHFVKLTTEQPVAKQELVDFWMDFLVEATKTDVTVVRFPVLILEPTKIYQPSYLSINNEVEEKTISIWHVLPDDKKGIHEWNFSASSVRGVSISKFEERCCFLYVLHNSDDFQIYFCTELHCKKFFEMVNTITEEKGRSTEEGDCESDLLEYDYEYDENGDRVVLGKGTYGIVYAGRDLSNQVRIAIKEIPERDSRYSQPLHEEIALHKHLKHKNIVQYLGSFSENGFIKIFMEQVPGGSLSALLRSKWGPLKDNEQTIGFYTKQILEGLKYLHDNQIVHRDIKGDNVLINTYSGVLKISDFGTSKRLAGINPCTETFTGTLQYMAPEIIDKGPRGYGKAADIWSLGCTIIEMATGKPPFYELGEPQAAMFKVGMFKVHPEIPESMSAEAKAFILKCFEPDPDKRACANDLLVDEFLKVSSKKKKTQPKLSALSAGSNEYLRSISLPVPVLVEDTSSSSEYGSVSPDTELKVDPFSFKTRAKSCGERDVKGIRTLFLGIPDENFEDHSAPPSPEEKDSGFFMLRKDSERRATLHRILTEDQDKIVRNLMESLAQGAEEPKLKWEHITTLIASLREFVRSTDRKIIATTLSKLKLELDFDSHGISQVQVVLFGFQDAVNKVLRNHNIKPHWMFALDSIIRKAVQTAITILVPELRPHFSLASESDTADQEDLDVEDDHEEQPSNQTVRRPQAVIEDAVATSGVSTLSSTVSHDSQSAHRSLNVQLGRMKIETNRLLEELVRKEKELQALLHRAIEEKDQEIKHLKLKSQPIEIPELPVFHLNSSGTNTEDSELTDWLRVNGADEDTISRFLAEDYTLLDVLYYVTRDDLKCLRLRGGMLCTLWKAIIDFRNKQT
Test: Inhibition of ASK1 (unknown origin)
The following compounds are listed with their measured pIC50 values.
Remember, pIC50 is on a log scale: it is -log10 of the molar concentration.

[
  {
    "chemicalString": "CC(C)n1cnnc1-c1cccc(NC(=O)Nc2nc3ccccc3[nH]2)n1",
    "testTarget": "Mitogen-activated protein kinase kinase kinase 5 (Homo sapiens)",
    "property": "pIC50",
    "dataValue": 6.96
  }
]

Lookup: // lookup pIC50 for `C[C@H](CO)n1cnnc1-c1cccc(NC(=O)Nc2ccc3ccccc3n2)n1`
Found: 7.32

Lookup: Also check `CC(C)n1cnnc1-c1cccc(NC(=O)Nc2ccc(-c3cnn(C)c3)cn2)n1`
Found: 7.19

Lookup: Also check `CC(C)n1cnnc1-c1cccc(NC(=O)Nc2cnn(C)c2)n1`
Found: 5.73
